Ki: recorded values
target: UniProt:P00918
Give just the number in nM; leave the unit off.

The cases that follow already have their Ki on record.
[[record]]
test_smiles = "CC1(C)C(/C=C/C2=C(NCCNC(=O)Nc3ccc(S(N)(=O)=O)cc3)C(=C/C=C3\\N(CCCCS(=O)(=O)O)c4ccc5ccccc5c4C3(C)C)/CCC2)=[N+](CCCCS(=O)(=O)[O-])c2ccc3ccccc3c21"
quantity_kind = "Ki"
reading = 183

[[record]]
test_smiles = "CC1(C)C(/C=C/C2=C(NCCc3ccc(S(N)(=O)=O)cc3)C(=C/C=C3\\N(CCCCS(=O)(=O)O)c4ccc5ccccc5c4C3(C)C)/CCC2)=[N+](CCCCS(=O)(=O)[O-])c2ccc3ccccc3c21"
quantity_kind = "Ki"
reading = 91

[[record]]
test_smiles = "CCCN1C(=CC=C2CCCC(C=CC3=[N+](CCC)c4ccccc4C3(C)C)=C2NCCNC(=O)Nc2ccc(S(N)(=O)=O)cc2)C(C)(C)c2ccccc21"
quantity_kind = "Ki"
reading = 588


// switching to the query compound
// query Ki value for entry CN1C(=CC=C2CCCC(C=CC3=[N+](C)c4ccc5ccccc5c4C3(C)C)=C2NCCc2ccc(S(N)(=O)=O)cc2)C(C)(C)c2c1ccc1ccccc21
160
